Target: T1, Full length recombinant HBcAg (rHBcAg) encompassing residues 1-183 (hepatitis B virus, UniProt P03146 1-183)
T1 construct: range 1-183; also called hepatitis B virus core antigen
T1 sequence (P03146 whole entry, the tested form may be a part): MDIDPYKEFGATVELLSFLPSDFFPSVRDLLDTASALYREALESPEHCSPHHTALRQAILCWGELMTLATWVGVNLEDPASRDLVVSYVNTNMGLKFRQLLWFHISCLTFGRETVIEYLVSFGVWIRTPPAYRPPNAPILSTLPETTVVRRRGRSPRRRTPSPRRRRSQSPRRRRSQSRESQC
Test: EIA, peptide coated 25 ug/ml, HBcAg 10 ug/ml
Mark met for reported OD of 0.6 OD or greater; mark not met for anything smaller.

Binder	Class
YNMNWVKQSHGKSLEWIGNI (also called Peptide # 27) [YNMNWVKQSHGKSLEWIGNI (SEQ. ID. No. 30)]	not met
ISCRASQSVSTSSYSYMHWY [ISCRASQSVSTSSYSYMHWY (SEQ. ID. No. 17)]	met
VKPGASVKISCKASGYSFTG (also called Peptide # 25) [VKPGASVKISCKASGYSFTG (SEQ. ID. No. 28)]	not met
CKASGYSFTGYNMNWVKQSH (also called Peptide # 26) [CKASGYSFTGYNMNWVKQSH (SEQ. ID. No. 29)]	not met
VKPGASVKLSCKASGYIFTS (also called Peptide # 2; Pept. #2) [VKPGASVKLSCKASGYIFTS (SEQ. ID. No. 5)]	met
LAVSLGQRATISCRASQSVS [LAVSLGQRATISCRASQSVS (SEQ. ID. No. 16)]	not met

Reference for the values: patent US20020058247A1
